System: bacterial colon model
ASSAY_SUMMARY: in vitro
MEASUREMENT_PARAMETERS: human, 500 µM
READOUT_NAME: apparent first-order rate constant (k) (h⁻¹)

The following molecules have reported results that may help.
MOLECULE	apparent first-order rate constant (k), h⁻¹
CCOC(=O)C1=C(C)NC(C)=C(C(=O)OC)C1c1cccc([N+](=O)[O-])c1 (centres unmarked) [Nitrendipine, nitrendipine]	0.92
O=C(N[C@H](CO)[C@H](O)c1ccc([N+](=O)[O-])cc1)C(Cl)Cl [Chloramphenicol, chloramphenicol]	0.47
CC(=O)OCC(=O)NCCCOc1cccc(CN2CCCCC2)c1 [Roxatidine-acetate, roxatidine-acetate]	1.13

1: O=C(O)c1cc(/N=N/c2ccc(S(=O)(=O)Nc3ccccn3)cc2)ccc1O [Sulfasalazine, sulfasalazine]
2: CC1=C(CC(=O)O)c2cc(F)ccc2/C1=C\c1ccc([S+](C)[O-])cc1 (centres unmarked) [Sulindac, sulindac]
Lab log: flag the item ( 1 or 2 ) with the smaller apparent first-order rate constant (k) figure. State the label of the item chosen.
2

Numbers sourced from paper PMC13222238.
